target: heteromeric KV7.2/KV7.3 channels (KCNQ2, KCNQ3) (Homo sapiens, UniProt O43525+O43526); experiment: Automated patch-clamp (Sophion Qube 384) potency assay against KV7.2/KV7.3 channels; conditions: CHO-K1/Kv7.2/Kv7.3 cells; EC50 from concentration-response of shift in Vhalf, 10 concentrations up to 30 μM; read-out: Kv7.2/7.3 EC50
Decision: EC50 beneath 2000 nM gives True; EC50 meeting or exceeding 2000 nM gives False.

O=C(NCc1ccnc(OCC(F)(F)F)n1)N[C@@H]1CCc2ccccc21 ... True

In: Is it true that EC50 reported for COc1ccc2c(c1)CCC[C@H]2NC(=O)NCc1ccnc(OCC(F)(F)F)c1 is less than 2000 nM?
Out: False

In: # TODO verify EC50 < 2000 nM strictly for this compound: O=C(NCCC1(C(F)(F)F)CC1)N1CCC[C@H]1c1ccnc(OCC(F)(F)F)c1
Out: False

In: hey, is EC50 for C[C@@H](Oc1cc(CNC(=O)N[C@@H](C2CC2)C(F)(F)F)ncn1)C(F)(F)F lower than 2000 nM or not?
Out: False
